Cited source for all entries: ChEMBL document CHEMBL1961873

# Measurement target: Dual specificity mitogen-activated protein kinase kinase 1 (Homo sapiens);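 further: values reported are mean inhibition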
# Setup conditions: at 1 µM
Listed next: entries and their corresponding inhibition.
Outcome measure: inhibition (%)

• N#Cc1cccc(Nc2nccc(-c3cnn4ncccc34)n2)c1 = 63
• O=C1Nc2ccc(-c3cccnc3)cc2C1=Cc1cc(Br)c(O)c(Br)c1 = 5.62
• O=C1Nc2ccccc2/C1=C/Nc1ccc2[nH]c(=O)[nH]c2c1 = 6.88
• CN(C)CCCn1c(-c2nonc2N)nc2cnccc21 = 3.75
• Cc1cc(Cl)cc2c1NC(=O)C2=NNc1ccc(S(N)(=O)=O)cc1 = 2.09
• NC(=O)c1sc(-n2cnc3ccccc32)cc1OCc1ccccc1Br = 4.35
• COc1cc(Nc2nccc(-c3cnn4ncccc34)n2)cc(OC)c1 = 26.4
• Cc1ccc(C(=O)NC2CC2)cc1-c1ccc2[nH]ncc2c1 = -3.98
• NS(=O)(=O)c1ccc(-c2cc3ccncc3cc2OCc2ccccc2)cc1 = 3.72
• ON=C1CCc2cc(-c3nc(C4CCNCC4)[nH]c3-c3ccncc3)ccc21 = 2.1
• Oc1cccc(-c2nc(-c3ccccc3)[nH]c2-c2ccncc2)c1 = 4.94
• CCOc1nccc2c1nc(-c1nonc1N)n2CC = 3.14
• Cc1ccc(NC(=O)CC2CC2)cc1-c1ccc(C(=O)NCC2CC2)cc1 = 2.73
• CC(C)c1ccc(Nc2nccc(-c3cnn4ncccc34)n2)cc1 = 9.57
• COC(=O)c1ccc2c(c1)C(=Cc1cc(Br)c(O)c(Br)c1)C(=O)N2 = 5.79
• CN(c1ccc(NC(=O)Nc2ccc(OC(F)(F)F)cc2)cc1)c1ccnc(Nc2cccc(S(N)(=O)=O)c2)n1 = 13.7
• FC(F)(F)c1ccc(-c2nn3ncccc3c2-c2ccnc(Nc3ccc4c(c3)OCCO4)n2)cc1 = -1.13
• CN(C)C(=O)O[C@@H]1CN[C@@H](C#Cc2cc3ncnc(Nc4ccc(OCc5cccc(F)c5)c(Cl)c4)c3s2)C1 = 0.83
• c1ccc(Nc2ncc(-c3ccccc3)o2)cc1 = 4.19
• COC(=O)Nc1nc2cc(Oc3ccc(NC(=O)Nc4cccc(Br)c4)cc3)ccc2[nH]1 = 4
• COc1cccc(-n2ncc3c(N/N=C/c4ccc(C)cc4)ncnc32)c1 = 3.78
• c1ccc(Cc2nc3ccc(Nc4ncnc5ccccc45)cc3[nH]2)cc1 = 2.98
• NS(=O)(=O)c1ccc(N/N=C2\C(=O)Nc3ccc(Cl)cc32)cc1 = 5.11
• COc1cc(/C=N/Nc2ncnc3c2cnn3C(C)C)ccc1O = 1.21
• Cc1ccc(O)cc1Nc1ccnc2ccc(S(C)(=O)=O)cc12 = 8.37
• CCCN1CCCC(c2ccc(Nc3nc(Nc4cc(F)ccc4C(N)=O)c4cc[nH]c4n3)c(OC)c2)C1 (stereo not drawn) = 33.4
• Nc1nccc(-c2c(-c3ccc(F)cc3)ncn2CCCN2CCOCC2)n1 = 4.45
• COc1ccc2ncnc(Nc3ccc(OCc4ccccc4)cc3)c2c1 = 2.41
• NC(=O)c1cccc(Nc2nccc(Nc3cccc(F)c3)n2)c1 = 1.42
• Nc1ccc(C#Cc2cncnc2Nc2ccc(OCc3cccc(F)c3)c(Cl)c2)cc1 = 3.23
• CN(C)C(=O)O[C@H]1CN[C@H](C#Cc2cc3ncnc(Nc4ccc(OCc5cccc(F)c5)c(Cl)c4)c3s2)C1 = 2.35
• NS(=O)(=O)c1cccc(Nc2cc(-c3ccc(F)cc3)n[nH]2)c1 = 3.82
• O=S(=O)(CCOCc1ccc(-c2ccc3ncnc(Nc4ccc(OCc5cccc(F)c5)c(Cl)c4)c3c2)o1)c1ccccc1 = 3.33
• Nc1nccc(-c2c(-c3ccc(F)cc3)nn3cc(C(F)(F)F)ccc23)n1 = 0.93
• CCS(=O)(=O)c1ccc(OC)c(Nc2ncc(-c3cccc(OC)c3)o2)c1 = 3.57
• Cc1ccc(Nc2ccnc(Nc3cccc(C(N)=O)c3)n2)cc1O = 4.94
• Nc1nccc(C#Cc2cncnc2Nc2ccc(OCc3cccc(F)c3)c(Cl)c2)n1 = 4.4
• COc1cc2ncnc(Nc3ccc4c(cnn4Cc4ccccc4)c3)c2cc1OC = 2.12
